Attribution: the RNAGym collection of RNA variant scans (doi:10.7554/elife.80360)

B1: Twister Ribozyme (parent)
chain: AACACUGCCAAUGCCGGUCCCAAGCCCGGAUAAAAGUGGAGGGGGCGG

Variants of: B1
ASSAY METHOD TEXT: self-cleavage, relative activity (ratio to wild type); higher = more cleavage; co-transcriptional
READOUT NAME: self-cleavage

INSERT INTO results (mutations, readout_name, result_value) VALUES
  ('U6G C46G', 'self-cleavage', 0.406),
  ('A10C G17A', 'self-cleavage', 0.391),
  ('U12G C26U', 'self-cleavage', 0.407),
  ('A11C C21U', 'self-cleavage', 0.1),
  ('A33U G43C', 'self-cleavage', 0.101);
